- System tested: T1, Recombinant Human TNF-α/TNFSF1A (human, UniProt P01375 77-233)
- T1 construct: also called hTNF-α; huTNFα
- T1 sequence (P01375 77-233 limits assumed): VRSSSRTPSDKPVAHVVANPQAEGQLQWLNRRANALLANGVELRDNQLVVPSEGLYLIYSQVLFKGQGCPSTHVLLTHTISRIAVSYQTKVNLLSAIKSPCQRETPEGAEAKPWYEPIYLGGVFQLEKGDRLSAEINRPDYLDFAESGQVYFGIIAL
- Assay method text: SPR (BIACORE), antibody captured, TNFα in solution
Listed next: entries and their corresponding koff.
Kindly report the value followed by its unit.

Ask | Suppose we examine the binder AB358 (antibody, V domains shown, Full-length humanized antibody made in HEK 293-6E; also called hMAK199VH.1a/hMAK199VL.1a) VH: EIQLVQSGSELKKPGASVKVSCKASGYTFTNYGMNWVRQAPGQGLEWMGWINTYTGEPTYADDFKGRFVFSLDTSVSTAYLQISSLKAEDTAVYFCARKFLTTVVVTDYAMDYWGQGTTVTVSS VL: DIQMTQSPSSLSASVGDRVTITCRASQDISNYLNWYQQKPGKTVKLLIYYTSRLQSGVPSRFSGSGSGTDYTLTISSLQPEDFATYFCQQGNTLPPTFGQGTKLEIK ; what koff value has been reported?
Reply | 0.00097 s⁻¹

Ask | # repeat for AB364 (antibody, V domains shown, Full-length humanized antibody made in HEK 293-6E; also called hMAK199VH.1b/hMAK199VL.1a) VH: EVQLVQSGSELKKPGASVKVSCKASGYTFTNYGMNWVRQAPGQGLEWMGWINTYTGEPTYADDFKGRFVFSLDTSVSTAYLQISSLKAEDTAVYFCARKFLTTVVVTDYAMDYWGQGTTVTVSS VL: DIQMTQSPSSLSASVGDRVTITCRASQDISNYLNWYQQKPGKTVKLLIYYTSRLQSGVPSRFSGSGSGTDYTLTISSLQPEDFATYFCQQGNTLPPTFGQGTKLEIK
Reply | 0.0011 s⁻¹

Ask | # repeat for AB383 (antibody, V domains shown, Full-length humanized antibody made in HEK 293-6E; also called hMAK199VH.2b/hMAK199VL.1b) VH: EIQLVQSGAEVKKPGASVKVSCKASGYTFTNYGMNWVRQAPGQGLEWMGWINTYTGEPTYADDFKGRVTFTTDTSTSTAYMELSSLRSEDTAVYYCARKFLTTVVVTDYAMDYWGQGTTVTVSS VL: DIQMTQSPSSLSASVGDRVTITCRASQDISNYLNWYQQKPGKAPKLLIYYTSRLQSGVPSRFSGSGSGTDYTLTISSLQPEDFATYYCQQGNTLPPTFGQGTKLEIK
Reply | 0.0018 s⁻¹

Ask | # repeat for AB361 (antibody, V domains shown, Full-length humanized antibody made in HEK 293-6E; also called hMAK199VH.1a/hMAK199VL.2a) VH: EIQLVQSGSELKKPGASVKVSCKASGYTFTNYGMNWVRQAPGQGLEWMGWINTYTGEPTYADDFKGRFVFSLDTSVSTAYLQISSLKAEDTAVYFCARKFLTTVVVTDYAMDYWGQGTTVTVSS VL: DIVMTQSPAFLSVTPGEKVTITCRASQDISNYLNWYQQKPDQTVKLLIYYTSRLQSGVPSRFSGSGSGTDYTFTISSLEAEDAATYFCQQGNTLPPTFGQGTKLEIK
Reply | 0.00098 s⁻¹

Ask | # repeat for AB360 (antibody, V domains shown, Full-length humanized antibody made in HEK 293-6E; also called hMAK199VH.1a/hMAK199VL.2) VH: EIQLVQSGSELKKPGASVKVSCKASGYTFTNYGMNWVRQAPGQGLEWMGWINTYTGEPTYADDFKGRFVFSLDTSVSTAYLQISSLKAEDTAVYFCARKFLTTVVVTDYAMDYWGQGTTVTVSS VL: DVVMTQSPAFLSVTPGEKVTITCRASQDISNYLNWYQQKPDQAPKLLIKYTSRLQSGVPSRFSGSGSGTDFTFTISSLEAEDAATYYCQQGNTLPPTFGQGTKLEIK
Reply | 0.00097 s⁻¹
